# Tgt: FPR2 (Homo sapiens)
# Sequence (P25090 1-351): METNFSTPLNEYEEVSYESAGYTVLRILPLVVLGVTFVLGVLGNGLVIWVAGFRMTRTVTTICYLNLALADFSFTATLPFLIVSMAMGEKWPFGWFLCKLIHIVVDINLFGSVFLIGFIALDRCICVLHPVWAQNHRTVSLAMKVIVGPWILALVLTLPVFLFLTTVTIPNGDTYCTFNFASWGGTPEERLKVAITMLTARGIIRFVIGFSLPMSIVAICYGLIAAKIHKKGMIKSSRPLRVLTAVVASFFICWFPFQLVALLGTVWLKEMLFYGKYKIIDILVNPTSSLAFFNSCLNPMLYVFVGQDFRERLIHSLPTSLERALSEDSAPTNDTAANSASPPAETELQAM
# Assay Method Text: FPR2 compound-induced calcium activity assay on FLIPR Tetra
# Test Settings: HEK-Gα16, CHO-Gα16 or HEK-Gqi5 cells stably expressing FPR2, tested at 0.61 to 10,000 nM
pEC50: −log10 of the molar value.

| Compound | pEC50 |
| --- | --- |
| CCOC(=O)CCC(=O)N(CC(C)C)NC(=O)Nc1ccc(Br)cc1F [Compound 9] | 5.44 |
| CC(C)CN(NC(=O)Nc1ccc(C(F)(F)F)cc1)C(=O)CCC(=O)O [Compound 12] | 7.68 |
| CCC(CC)(CC(=O)NNC(=O)Nc1ccc(Br)cc1)C(=O)O [Compound 6] | 6.38 |
| CCCN(NC(=O)Nc1ccc(C(F)(F)F)cc1)C(=O)CCC(=O)O [Compound 14] | 7.55 |
| CCCC(CCC)(CC(=O)NNC(=O)Nc1ccc(Br)cc1)C(=O)OC [Compound 4] | 7.34 |
| CCCC(CCC)(CC(=O)NNC(=O)Nc1ccc(Br)cc1)C(=O)O [Compound 5] | 6.67 |
| CCOC(=O)CCC(=O)N(CC(C)C)NC(=O)Nc1ccc(C(F)(F)F)cc1 [Compound 11] | 7.24 |
| CCOC(=O)CC(=O)NNC(=O)Nc1ccc(Br)cc1 [Compound 1] | 6.12 |
| CCCCN(NC(=O)Nc1ccc(Br)cc1)C(=O)CCC(=O)OCC [Compound 15] | 7.47 |

###

# Tgt: FPR2 (Homo sapiens)
# Construct: expressed in transfected cells; host or cells: HEK-Gα16, CHO-Gα16 and HEK-Gqi5 cells stably expressing FPR2
# Assay Method Text: FPR2 compound-induced calcium activity assay on FLIPR Tetra
# Assay type: cell-based
# Test Settings: HEK-Gα16, CHO-Gα16 or HEK-Gqi5 cells stably expressing FPR2, tested at 0.61 to 10,000 nM, read-out: % Efficacy
// reported Emax for each item listed

| Sample Smiles | Emax / % |
| --- | --- |
| CCOC(=O)CCC(=O)N(CC(C)C)NC(=O)Nc1ccc(C(F)(F)F)cc1 | 94 |
| CC(C)CN(NC(=O)Nc1ccc(Br)cc1)C(=O)CCC(=O)O | 100 |
| CCCN(NC(=O)Nc1ccc(Br)cc1F)C(=O)CCC(=O)OCC | 100 |
| CCCC(CCC)(CC(=O)NNC(=O)Nc1ccc(Br)cc1)C(=O)O | 87 |
| CCOC(=O)CC(=O)NNC(=O)Nc1ccc(Br)cc1 | 100 |
| CCCCN(NC(=O)Nc1ccc(Br)cc1)C(=O)CCC(=O)OCC | 100 |
| CC(C)CN(NC(=O)Nc1ccc(Br)cc1F)C(=O)CCC(=O)O | 99 |
| CCCN(NC(=O)Nc1ccc(Br)cc1F)C(=O)CCC(=O)O | 100 |
| CC(C)CN(NC(=O)Nc1ccc(C(F)(F)F)cc1)C(=O)CCC(=O)O | 98 |

###

# Tgt: FPR2 (Homo sapiens, UniProt P25090)
# Construct: expressed in transfected cells; host or cells: HEK-Gα16, CHO-Gα16 and HEK-Gqi5 cells stably expressing FPR2
# Assay Method Text: FPR2 compound-induced calcium activity assay on FLIPR Tetra
# Format: cell-based
# Test Settings: HEK-Gα16, CHO-Gα16 or HEK-Gqi5 cells stably expressing FPR2, tested at 0.61 to 10,000 nM, read-out: % Efficacy
// reported Emax for each item listed

| Sample Smiles | Tgt | Emax |
| --- | --- | --- |
| CC(C)(CC(=O)NNC(=O)Nc1ccc(Br)cc1)C(=O)O | FPR2 (Homo sapiens, UniProt P25090) | 86% |
| CCC(CC)(CC(=O)NNC(=O)Nc1ccc(Br)cc1)C(=O)O | FPR2 (Homo sapiens, UniProt P25090) | 73% |
| CCCN(NC(=O)Nc1ccc(C(F)(F)F)cc1)C(=O)CCC(=O)OCC | FPR2 (Homo sapiens, UniProt P25090) | 98% |
| CCCN(NC(=O)Nc1ccc(C(F)(F)F)cc1)C(=O)CCC(=O)O | FPR2 (Homo sapiens, UniProt P25090) | 97% |
| CCOC(=O)CCC(=O)N(CC(C)C)NC(=O)Nc1ccc(Br)cc1 | FPR2 (Homo sapiens, UniProt P25090) | 100% |
| CC(C)(C(=O)O)C(=O)NNC(=O)Nc1ccc(Br)cc1 | FPR2 (Homo sapiens, UniProt P25090) | 73% |
| CCOC(=O)CCC(=O)N(CC(C)C)NC(=O)Nc1ccc(Br)cc1F | FPR2 (Homo sapiens, UniProt P25090) | 76% |
| CCCC(CCC)(CC(=O)NNC(=O)Nc1ccc(Br)cc1)C(=O)OC | FPR2 (Homo sapiens, UniProt P25090) | 89% |
